Where do the numbers come from? From paper PMC4336329.

- studySystem: human ether-à-go-go-related gene (hERG) potassium channel (human);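 further: peak tail current of the secondary pulse compared with the same well before compound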
- protocolNotes: primary screen, population patch clamp on CHO cells stably expressing hERG; higher = less effect of the substance
In all, about 310,000 compounds went through this assay and about 14,000 (4.5%) showed an effect of 50% or more. The effect is printed as a negative number. Only a selection was taken, and strong results are over-represented in it overall.
assayEndpoint: hERG current change (%, negative = inhibition) at 10uM (%)
Give bare numbers, in %.

# compound, studySystem, valueReported
records = [
    ("COc1cccc(CC2(CO)CCCN(Cc3ccc(CN4CCCCC4)s3)C2)c1 (stereo not shown)", "human ether-à-go-go-related gene (hERG) potassium channel (human)", -22.1),
    ("COc1cccc(CC2(CO)CCCN(Cc3cc4ccccc4[nH]3)C2)c1 (stereo not shown)", "human ether-à-go-go-related gene (hERG) potassium channel (human)", -37.5),
    ("CC(=O)c1ccc(S(=O)(=O)N(C)C(C)CCc2ccco2)cc1 (stereo not shown)", "human ether-à-go-go-related gene (hERG) potassium channel (human)", -6.81),
    ("OCC1(Cc2ccccc2)CCCN(Cc2ccc3c(c2)OCCO3)C1 (stereo not shown)", "human ether-à-go-go-related gene (hERG) potassium channel (human)", -24.6),
    ("O=C(COC(=O)C1=NN(c2ccccc2)C(=O)CC1)Nc1ccc([N+](=O)[O-])cc1C(F)(F)F", "human ether-à-go-go-related gene (hERG) potassium channel (human)", 5.08),
    ("O=C1CC2(CCCCC2)Oc2ccc(F)cc21", "human ether-à-go-go-related gene (hERG) potassium channel (human)", -4.03),
]

Kindly give each listed record's hERG current change (%, negative = inhibition) at 10uM.
1. Fc1ccc(CN2CCN(c3ncnc4scc(-c5ccccc5)c34)CC2)cc1
2. COc1ccc(C/C(C)=N/NC(=O)c2cc(C)oc2C)cc1
3. O=C(CN(c1cccc([N+](=O)[O-])c1)S(=O)(=O)c1ccccc1)NCc1ccccc1
4. Cc1c(C)c2c(OCC(=O)NCC(=O)NCC(=O)O)cc3c(c2oc1=O)CCC(C)(C)O3

-39.9
4.56
-68.5
15.2

* * *

Please go through the items and note down their hERG current change (%, negative = inhibition) at 10uM.
- studySystem: human ether-à-go-go-related gene (hERG) potassium channel (human, UniProt Q12809);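 further: peak tail current of the secondary pulse compared with the same well before compound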
- Sequence (Q12809 whole entry, looked up): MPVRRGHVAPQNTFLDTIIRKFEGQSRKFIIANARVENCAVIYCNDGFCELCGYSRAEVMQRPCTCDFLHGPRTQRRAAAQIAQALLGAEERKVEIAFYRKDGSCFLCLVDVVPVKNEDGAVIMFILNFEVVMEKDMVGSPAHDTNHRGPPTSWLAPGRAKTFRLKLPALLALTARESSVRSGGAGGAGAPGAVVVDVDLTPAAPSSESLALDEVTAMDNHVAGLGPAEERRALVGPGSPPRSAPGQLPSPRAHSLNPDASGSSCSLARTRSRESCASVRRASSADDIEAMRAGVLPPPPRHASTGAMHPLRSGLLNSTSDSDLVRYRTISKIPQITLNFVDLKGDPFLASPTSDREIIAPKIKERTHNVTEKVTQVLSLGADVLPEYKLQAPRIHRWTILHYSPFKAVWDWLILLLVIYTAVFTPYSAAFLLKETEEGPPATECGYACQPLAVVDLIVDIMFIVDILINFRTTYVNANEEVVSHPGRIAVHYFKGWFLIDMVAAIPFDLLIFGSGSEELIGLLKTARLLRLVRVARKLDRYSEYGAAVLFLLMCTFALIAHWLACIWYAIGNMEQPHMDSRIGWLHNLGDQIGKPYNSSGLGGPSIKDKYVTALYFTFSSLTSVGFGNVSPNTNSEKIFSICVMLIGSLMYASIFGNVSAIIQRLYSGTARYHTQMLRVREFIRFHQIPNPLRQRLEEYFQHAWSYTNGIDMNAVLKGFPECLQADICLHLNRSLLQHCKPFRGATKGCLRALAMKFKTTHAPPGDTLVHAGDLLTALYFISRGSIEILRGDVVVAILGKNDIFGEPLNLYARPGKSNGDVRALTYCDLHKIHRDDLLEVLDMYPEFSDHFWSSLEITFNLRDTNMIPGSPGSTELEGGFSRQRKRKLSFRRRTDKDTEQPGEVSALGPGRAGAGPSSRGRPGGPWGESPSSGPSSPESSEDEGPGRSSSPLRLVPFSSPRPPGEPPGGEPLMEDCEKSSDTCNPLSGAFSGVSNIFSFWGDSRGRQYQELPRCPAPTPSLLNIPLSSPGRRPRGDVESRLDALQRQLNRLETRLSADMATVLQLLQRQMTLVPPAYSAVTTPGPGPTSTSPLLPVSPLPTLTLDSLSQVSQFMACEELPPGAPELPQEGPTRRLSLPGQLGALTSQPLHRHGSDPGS
- protocolNotes: primary screen, population patch clamp on CHO cells stably expressing hERG; higher = less effect of the substance
- Experimental: Briefly, Chinese hamster ovary (CHO) cells stably expressing the hERG channel were dislodged from tissue culture flasks and dispensed into PPC plates. […] During the recording, background leak currents were estimated by a 100 ms step to -80 mV from an initial holding potential of -70 mV and subtracted from the subsequent current measurement. The campaign was conducted in two phases using slight differences in recording protocol. […]
Out of some 310,000 compounds screened, about 14,000 (4.5%) showed an effect of 50% or more. The effect is printed as a negative number. Many of the other results were omitted from the sample, so strong results are more common in it than they were.
Give bare numbers, in %.

Here is how some compounds turned out for hERG current change (%, negative = inhibition) at 10uM.
# compound, valueReported
rows = [
    ("COc1ccc(Cl)cc1C(=O)NCC(c1ccco1)N1CCCC1 (stereo not drawn)", -44.5),
    ("COc1ccc(OC)c(C2CC(=O)N3CN(c4ccccc4)CSC3=C2C#N)c1 (stereo not drawn)", 9.38),
    ("C=CCOc1ccccc1C1C2=C(CC(C)(C)CC2=O)Nc2c1c(=O)n(C)c(=O)n2C (stereo not drawn)", -3.8),
]

Kindly give each listed record's hERG current change (%, negative = inhibition) at 10uM.
1. COc1ccc(OC)c(-c2nn(-c3ccccc3)cc2C(=O)NCC(c2ccco2)N2CCCC2)c1 (stereo not drawn)
2. O=C(Nc1ccccc1)/C(=C/c1ccc([N+](=O)[O-])cc1)NC(=O)c1ccccc1
3. O=C(CCc1nnc2ccc(NCc3ccccc3Cl)nn12)NC1CCCCC1
4. Cc1cc(C(=O)NCC(c2ccco2)N2CCCC2)c2ccccc2n1 (stereo not drawn)
5. COc1ccc(C(=O)Nc2ccccc2C(=O)NC(C)C)cc1OC
6. COc1ccc(OC)c(C2C3CN(C(C)C)CC=C3C(C#N)=C(N)C2(C#N)C#N)c1 (stereo not drawn)

1: -63.7; 2: 8.2; 3: -7.98; 4: 6.54; 5: -6.82; 6: -16.2

* * *

Please go through the items and note down their hERG current change (%, negative = inhibition) at 10uM.
- studySystem: human ether-à-go-go-related gene (hERG) potassium channel (human, UniProt Q12809);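 further: peak tail current of the secondary pulse compared with the same well before compound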
- protocolNotes: primary screen, population patch clamp on CHO cells stably expressing hERG; higher = less effect of the substance
Screen size: about 310,000 compounds; about 14,000 (4.5%) showed an effect of 50% or more. Effects have a minus sign here. The sample holds strong results, similar compounds and a random draw of the others, so the mix is not that of the screen.
One number for each entry, in %.

Here is how some compounds turned out for hERG current change (%, negative = inhibition) at 10uM.
# compound, unitOfMeasure, valueReported
measured = [
    ("CC1=CC(c2ccccc2)n2nc(N3C(=O)C4CC=CCC4C3=O)nc2N1 (stereo not shown)", "%", -7.93),
    ("Cl.OC(CNC1CCCC1)COc1c(F)cc(Br)cc1F (stereo not shown)", "%", -27.3),
]

Kindly give each listed record's hERG current change (%, negative = inhibition) at 10uM.
1. CC(C)c1onc(C(=O)N2CCN(c3ccc(F)cc3)CC2)c1[N+](=O)[O-]
2. COC(=O)c1[nH]c2cc(OC)ccc2c1NC(=O)CCN1CCSCC1
3. CN(CC(O)COc1ccccc1F)C1CCCCC1.Cl (stereo not shown)
4. CCOc1cccc(OCCCOc2cccc3cccnc23)c1
5. C/C(N)=C(/C#N)C(=O)COC(=O)c1ccccc1O
6. CC(C)(C)NCC(O)COc1c(F)cc(Br)cc1F.Cl (stereo not shown)

1: -19.9; 2: 7.01; 3: 2.08; 4: -8.52; 5: -0.192; 6: -7.38

* * *

- studySystem: human ether-à-go-go-related gene (hERG) potassium channel (human);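 further: peak tail current of the secondary pulse compared with the same well before compound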
- protocolNotes: primary screen, population patch clamp on CHO cells stably expressing hERG; higher = less effect of the substance
The campaign covered roughly 310,000 compounds. About 14,000 (4.5%) showed an effect of 50% or more. The effect is printed as a negative number. The list comes from a sample in which strong results are over-represented; it also holds close analogues and randomly drawn compounds.
assayEndpoint: hERG current change (%, negative = inhibition) at 10uM (%)
One number for each entry, in %.

Kindly give each listed record's hERG current change (%, negative = inhibition) at 10uM.
1. CN(C)CCCNC(=O)/C(=C\c1ccc(-c2ccc(Br)cc2)o1)NC(=O)c1ccccc1
2. CCN(CC(=O)Nc1ccc(S(=O)(=O)N2CCOCC2)cc1)Cc1ccccc1
3. CN(C)N=Nc1ccc(S(=O)(=O)N2CCSC2C(=O)O)cc1 (stereo not shown)
4. CN(C)CCCNC(=O)c1ccc(-c2ccccc2)cc1
5. COc1ccc(Cn2nnnc2C(c2cc3cc(C)ccc3[nH]c2=O)N2CCOCC2)cc1 (stereo not shown)
6. CCCCN(CC)C(=S)Nc1ccc2nc3n(c(=O)c2c1)CCCCC3
7. O=C(NCCO)/C(=C\c1ccc([N+](=O)[O-])o1)NC(=O)c1ccccc1
8. COc1cccc(-c2nc(CS(=O)(=O)CC(=O)N3CCN(C)CC3)c(C)o2)c1

1: -75.1; 2: -16.5; 3: 2.21; 4: -36.7; 5: -50.2; 6: -59; 7: 1.55; 8: 8.02

Kindly give each listed record's hERG current change (%, negative = inhibition) at 10uM.
1. Cc1ccc(C)c2[nH]c(=O)c(C(c3nnnn3CCc3ccccc3)N3CCOCC3)cc12 (stereo not shown)
2. COc1cccc(CCNC(=O)c2ccc(OC)c(OC3CCN(C(C)C)CC3)c2)c1
3. COc1ccc(Cn2nnnc2C(c2cc3cc(C)ccc3[nH]c2=O)N2CCN(C)CC2)cc1 (stereo not shown)
4. Cl.c1ccc(CN2CCOCC2)cc1
5. Cc1ccc2[nH]c(=O)c(C(c3nnnn3CCc3ccccc3)N3CCOCC3)cc2c1 (stereo not shown)

[-59.4, -57.4, -24.4, 22, -10.5]

Kindly give each listed record's hERG current change (%, negative = inhibition) at 10uM.
1. Cc1ccc(C(=O)N/C(=C/c2ccc(-c3ccc(Br)cc3)o2)C(=O)NC2CCS(=O)(=O)C2)cc1 (stereo not shown)
2. CCc1ccc2[nH]c(=O)c(C(c3nnnn3Cc3ccc(OC)cc3)N3CCOCC3)cc2c1 (stereo not shown)
3. Cl.c1ccc(CN2CCC3(CCCc4ccccc43)CC2)cc1
4. O=c1[nH][nH]c(C(F)(F)F)c1C=NCc1ccc(Cl)cc1
5. Cc1ccc(C(=O)N/C(=C\c2ccc(-c3ccc(Cl)cc3)o2)C(=O)NCCCN(C)C)cc1
6. COc1ccc(Cn2nnnc2C(c2cc3ccc(OC)cc3[nH]c2=O)N2CCCCCC2)cc1 (stereo not shown)

-6.35
-19.1
-69.6
-1.88
-85
-13.6
